assay conditions: 323.15 K; 102 kPa; Liquid; Concentric cylinders viscometry
Below, each entry is listed alongside its reported viscosity.
Your answer should be a plain number; it is taken to be in mPa·s.

Solved entries (count: 5):
structure as smiles | viscosity [mPa·s]
CCCCCCC1CCCCC1 | 1.3
CCCCCCCCCCCC | 0.934
CCCCCCCCCCC1CCCCC1 | 2.6
CCCCCCCC1CCCCC1 | 1.55
CCCC1CCCCC1 | 0.668

response.value for CCCCCCCCC1CCCCC1 (field: viscosity) = 1.87

response.value for CCCCCC1CCCCC1 (field: viscosity) = 1.05

response.value for CCCCCCCCCCCCC1CCCCC1 (field: viscosity) = 3.55

----------
Below, each entry is listed alongside its reported speed of sound.
assay conditions: 303.15 K; 102 kPa; Liquid; Frequency=3 MHz; Single path-length method
Your answer should be a plain number; it is taken to be in m/s.

Solved entries (count: 2):
structure as smiles | speed of sound [m/s]
CCCC1CCCCC1 | 1266.6
CCCCCCCCCCCC | 1259

Note: attention shifts to another entry.
response.value for CCCCCCCCC1CCCCC1 (field: speed of sound) = 1348.6

----------
assay conditions: 293.15 K; 102 kPa; Liquid; Vibrating tube method
Below, each entry is listed alongside its reported mass density.
Your answer should be a plain number; it is taken to be in kg/m3.

compound | readout units | val
CCCCCC1CCCCC1 [pentylcyclohexane] | kg/m3 | 804.13
CCCC1CCCCC1 [1-cyclohexylpropane] | kg/m3 | 793.53
CCCCCCCCCCC1CCCCC1 [decylcyclohexane] | kg/m3 | 818.54
CCCCCCCCC1CCCCC1 [octylcyclohexane] | kg/m3 | 814.13
CCCCCCCCCCCC [dodecane] | kg/m3 | 748.72

Note: attention shifts to another entry.
response.value for CCCCCCCCCCCCC1CCCCC1 [dodecylcyclohexane] (field: mass density) = 822.36

----------
assay conditions: 298.15 K; 102 kPa; Liquid; Vibrating tube method
metric: mass density (kg/m3)
Your answer should be a plain number; it is taken to be in kg/m3.

response.value for CCCCCCC1CCCCC1 (field: mass density) = 804.19

response.value for CCCCCCCCCCCCC1CCCCC1 (field: mass density) = 819.02

response.value for CCCCCCCC1CCCCC1 (field: mass density) = 807.49

----------
Below, each entry is listed alongside its reported mass density.
assay conditions: 323.15 K; 102 kPa; Liquid; Vibrating tube method
Your answer should be a plain number; it is taken to be in kg/m3.

structure as smiles | mass density, kg/m3
CCCCCCCC1CCCCC1 | 789.91
CCCCCCCCCCCC | 726.88
CCCC1CCCCC1 | 770

response.value for CCCCCCC1CCCCC1 (field: mass density) = 786.25

response.value for CCCCCC1CCCCC1 (field: mass density) = 782.14

response.value for CCCCCCCCC1CCCCC1 (field: mass density) = 793.35
